Biological target: Human immunodeficiency virus type 1 reverse transcriptase (Human immunodeficiency virus 1)
Overview of reported log10 IC50 across a group of molecules:
Readout Kind: log10 IC50 (log10 of the value in µM)

Molecule: O=C(Cn1cncn1)Nc1ccc(NC(=O)Nc2sc(-c3ccc(Cl)c(Cl)c3)cc2C(=O)O)cc1
Reported Result: -0.10

Molecule: CS(=O)(=O)Nc1ccc(NC(=O)Nc2sc(-c3ccc(Cl)c(Cl)c3)cc2C(=O)O)cc1
Reported Result: -1.00

Molecule: CCN(Cc1ccccc1)C(=O)Nc1sc(-c2ccc(Cl)c(Cl)c2)cc1C(=O)O
Reported Result: -0.05

Molecule: O=C(Nc1ccccc1)Nc1sc(-c2ccc(Cl)c(Cl)c2)cc1C(=O)O
Reported Result: 0.08

Molecule: COc1ccc(NC(=O)Nc2sc(-c3ccc(Cl)c(Cl)c3)cc2C(=O)O)cc1
Reported Result: -0.10

Molecule: COC(=O)Nc1ccc(NC(=O)Nc2sc(-c3ccc(Cl)c(Cl)c3)cc2C(=O)O)cc1
Reported Result: -0.52

Molecule: O=C(Nc1ccc(NS(=O)(=O)c2ccccc2)cc1)Nc1sc(-c2ccc(Cl)c(Cl)c2)cc1C(=O)O
Reported Result: -0.05

Molecule: Cc1cn([C@H]2C[C@H](N=[N+]=[N-])[C@@H](CO[P@](=O)(O)O[P@](=O)(O)OP(=O)(O)O)O2)c(=O)[nH]c1=O [ZIDOVUDINE TRIPHOSPHATE]
Reported Result: 0.85

Molecule: CC(=O)Nc1ccc(NC(=O)Nc2sc(-c3ccc(Cl)c(Cl)c3)cc2C(=O)O)cc1
Reported Result: -0.22

Molecule: CN(C)S(=O)(=O)Nc1ccc(NC(=O)Nc2sc(-c3ccc(Cl)c(Cl)c3)cc2C(=O)O)cc1
Reported Result: -0.22

Molecule: O=C(Nc1ccc(F)cc1)Nc1sc(-c2ccc(Cl)c(Cl)c2)cc1C(=O)O
Reported Result: -0.15

====

Overview of reported IC50 across a group of compounds:
Experiment: Inhibition of Escherichia coli RNA polymerase
Readout Kind: IC50 (µM)

Compound: CCN(Cc1ccccc1)C(=O)Nc1cc(-c2ccc(Cl)cc2)sc1C(=O)O
Unit String: µM
Value Relation Sign: =
Reported Result: 75
//
Compound: CC(=O)Nc1ccc(NC(=O)Nc2sc(-c3ccc(Cl)c(Cl)c3)cc2C(=O)O)cc1
Unit String: µM
Value Relation Sign: =
Reported Result: 27
//
Compound: O=C(Nc1ccc(F)cc1)Nc1sc(-c2ccc(Cl)c(Cl)c2)cc1C(=O)O
Unit String: µM
Value Relation Sign: =
Reported Result: 14
//
Compound: CCN(Cc1ccccc1)C(=O)Nc1sc(-c2ccc(Cl)c(Cl)c2)cc1C(=O)O
Unit String: µM
Value Relation Sign: =
Reported Result: 21
//
Compound: CCN(Cc1ccccc1)C(=O)Nc1c(-c2ccc(Cl)c(Cl)c2)csc1C(=O)O
Unit String: µM
Value Relation Sign: =
Reported Result: 100
//
Compound: CCN(Cc1ccccc1)C(=O)Nc1cc(-c2ccc(Cl)c(Cl)c2)sc1C(=O)O
Unit String: µM
Value Relation Sign: =
Reported Result: 22
//
Compound: Cc1ccnc2c1NC(=O)c1cccnc1N2C1CC1 [NEVIRAPINE]
Unit String: µM
Value Relation Sign: >
Reported Result: 200
//
Compound: CCN(Cc1ccccc1)C(=O)Nc1scc(-c2ccc(Cl)c(Cl)c2)c1C(=O)O
Unit String: µM
Value Relation Sign: =
Reported Result: 57
//
Compound: CCN(Cc1ccccc1)C(=O)Nc1sc(-c2ccc(Cl)cc2)cc1C(=O)O
Unit String: µM
Value Relation Sign: =
Reported Result: 54
//
Compound: CS(=O)(=O)Nc1ccc(NC(=O)Nc2sc(-c3ccc(Cl)c(Cl)c3)cc2C(=O)O)cc1
Unit String: µM
Value Relation Sign: =
Reported Result: 26
//
Compound: COc1ccc(NC(=O)Nc2sc(-c3ccc(Cl)c(Cl)c3)cc2C(=O)O)cc1
Unit String: µM
Value Relation Sign: =
Reported Result: 22
//
Compound: O=C(Cn1cncn1)Nc1ccc(NC(=O)Nc2sc(-c3ccc(Cl)c(Cl)c3)cc2C(=O)O)cc1
Unit String: µM
Value Relation Sign: =
Reported Result: 40

====

Test: Cytotoxicity against human HeLa cells infected with HIV1 pseudoparticle expressing Gag, Gag-pol, RRE, and vesicular stomatitis virus-G protein assessed as inhibition of cell viability at 25 uM preincubated with cells for 30 mins followed by pseudoparticle addition measured 24 hrs post infection by MTT assay relative to control
Assay type: cell-based
Details: read-out: INH
Overview of reported cytotoxicity at 24 h, 25 µM across a group of molecules:

Chem Smiles: CS(=O)(=O)Nc1ccc(NC(=O)Nc2sc(-c3ccc(Cl)c(Cl)c3)cc2C(=O)O)cc1
cytotoxicity at 24 h, 25 µM, %: 0
--
Chem Smiles: CCN(Cc1ccccc1)C(=O)Nc1sc(-c2ccc(Cl)c(Cl)c2)cc1C(=O)O
cytotoxicity at 24 h, 25 µM, %: 23
--
Chem Smiles: COC(=O)Nc1ccc(NC(=O)Nc2sc(-c3ccc(Cl)c(Cl)c3)cc2C(=O)O)cc1
cytotoxicity at 24 h, 25 µM, %: 6
--
Chem Smiles: COc1ccc(NC(=O)Nc2sc(-c3ccc(Cl)c(Cl)c3)cc2C(=O)O)cc1
cytotoxicity at 24 h, 25 µM, %: 12
--
Chem Smiles: O=C(Nc1ccccc1)Nc1sc(-c2ccc(Cl)c(Cl)c2)cc1C(=O)O
cytotoxicity at 24 h, 25 µM, %: 0
--
Chem Smiles: O=C(Nc1ccc(F)cc1)Nc1sc(-c2ccc(Cl)c(Cl)c2)cc1C(=O)O
cytotoxicity at 24 h, 25 µM, %: 0

====

Test: Ratio of IC50 for NNRTI resistant HIV1 harboring reverse transcriptase A98G/K101E/Y181C/G190A mutant infected in human TZM-bl cells to IC50 for wild type HIV1 NL4-3 infected in human TZM-bl cells
Format: functional

Compound: Cc1cc(C#N)cc(C)c1Oc1nc(Nc2ccc(C#N)cc2)nc(N)c1Br [ETRAVIRINE]
Ratio IC50: 15
//
Compound: O=C(Nc1ccc(NS(=O)(=O)c2ccccc2)cc1)Nc1sc(-c2ccc(Cl)c(Cl)c2)cc1C(=O)O
Ratio IC50: 1
//
Compound: CS(=O)(=O)Nc1ccc(NC(=O)Nc2sc(-c3ccc(Cl)c(Cl)c3)cc2C(=O)O)cc1
Ratio IC50: 3.5
//
Compound: O=C(Nc1ccccc1)Nc1sc(-c2ccc(Cl)c(Cl)c2)cc1C(=O)O
Ratio IC50: 3
//
Compound: Cc1cc(/C=C/C#N)cc(C)c1Nc1ccnc(Nc2ccc(C#N)cc2)n1 [RILPIVIRINE]
Ratio IC50: 22

====

Target: Human immunodeficiency virus type 1 reverse transcriptase (Human immunodeficiency virus 1) (UniProt Q72547)
Assay: Inhibition of HIV1 reverse transcriptase using T19-Cy5 labeled 23-mer DNA/T2-TAMRA labeled 63-mer DNA as primer/template assessed as inhibition of dNTP incorporation into primer/template at 25 uM relative to control
Readout Kind: inhibition (%)

Chem Smiles: O=C(NCc1ccccc1)Nc1sc(-c2ccc(Cl)c(Cl)c2)cc1C(=O)O
Unit String: %
Reported Result: 64

Chem Smiles: CCN(Cc1ccccc1)C(=O)Nc1cc(-c2ccc(Cl)c(Cl)c2)sc1C(=O)O
Unit String: %
Reported Result: 24

Chem Smiles: O=C(O)c1cc(-c2ccc(Cl)c(Cl)c2)sc1NC(=O)N(Cc1ccccc1)Cc1ccccc1
Unit String: %
Reported Result: 63

Chem Smiles: CCN(Cc1ccccc1)C(=O)Nc1cc(-c2ccc(Cl)cc2)sc1C(=O)O
Unit String: %
Reported Result: 12

Chem Smiles: Nc1ccc(NC(=O)Nc2sc(-c3ccc(Cl)c(Cl)c3)cc2C(=O)O)cc1
Unit String: %
Reported Result: 64

====

Biological target: Human immunodeficiency virus type 1 reverse transcriptase (Human immunodeficiency virus 1)
Assay: Effect on binding orientation of HIV1 Alexa 488-labeled reverse transcriptase to TAMRA-labeled primer/template duplex by FRET assay
The source made the active and inactive calls. No cut-off for these calls is given here.

Chem Smiles: CCN(Cc1ccccc1)C(=O)Nc1sc(-c2ccc(Cl)c(Cl)c2)cc1C(=O)O
Experimental Target: Human immunodeficiency virus type 1 reverse transcriptase (Human immunodeficiency virus 1)
Activity: inactive
//
Chem Smiles: CN(C)S(=O)(=O)Nc1ccc(NC(=O)Nc2sc(-c3ccc(Cl)c(Cl)c3)cc2C(=O)O)cc1
Experimental Target: Human immunodeficiency virus type 1 reverse transcriptase (Human immunodeficiency virus 1)
Activity: inactive
//
Chem Smiles: O=C(Nc1ccccc1)Nc1sc(-c2ccc(Cl)c(Cl)c2)cc1C(=O)O
Experimental Target: Human immunodeficiency virus type 1 reverse transcriptase (Human immunodeficiency virus 1)
Activity: inactive
//
Chem Smiles: O=C(Nc1ccc(NS(=O)(=O)c2ccccc2)cc1)Nc1sc(-c2ccc(Cl)c(Cl)c2)cc1C(=O)O
Experimental Target: Human immunodeficiency virus type 1 reverse transcriptase (Human immunodeficiency virus 1)
Activity: inactive
//
Chem Smiles: CC(=O)Nc1ccc(NC(=O)Nc2sc(-c3ccc(Cl)c(Cl)c3)cc2C(=O)O)cc1
Experimental Target: Human immunodeficiency virus type 1 reverse transcriptase (Human immunodeficiency virus 1)
Activity: inactive
//
Chem Smiles: O=C(Nc1ccc(F)cc1)Nc1sc(-c2ccc(Cl)c(Cl)c2)cc1C(=O)O
Experimental Target: Human immunodeficiency virus type 1 reverse transcriptase (Human immunodeficiency virus 1)
Activity: inactive
//
Chem Smiles: CS(=O)(=O)Nc1ccc(NC(=O)Nc2sc(-c3ccc(Cl)c(Cl)c3)cc2C(=O)O)cc1
Experimental Target: Human immunodeficiency virus type 1 reverse transcriptase (Human immunodeficiency virus 1)
Activity: inactive
//
Chem Smiles: COc1ccc(NC(=O)Nc2sc(-c3ccc(Cl)c(Cl)c3)cc2C(=O)O)cc1
Experimental Target: Human immunodeficiency virus type 1 reverse transcriptase (Human immunodeficiency virus 1)
Activity: inactive
//
Chem Smiles: O=C(Cn1cncn1)Nc1ccc(NC(=O)Nc2sc(-c3ccc(Cl)c(Cl)c3)cc2C(=O)O)cc1
Experimental Target: Human immunodeficiency virus type 1 reverse transcriptase (Human immunodeficiency virus 1)
Activity: inactive
//
Chem Smiles: COC(=O)Nc1ccc(NC(=O)Nc2sc(-c3ccc(Cl)c(Cl)c3)cc2C(=O)O)cc1
Experimental Target: Human immunodeficiency virus type 1 reverse transcriptase (Human immunodeficiency virus 1)
Activity: inactive

Reference for the values: ChEMBL document CHEMBL4477221
